Values compiled from paper PMC9694544.

Experimental protocol: clinical
Condition set: human, in vivo, single dose, PK lead-in phase of dose-escalation phase, 450 mg (n=4), mean; read-out: T1/2 (converted)
Measurement kind: half-life (days)

# Structure, Measurement kind, Number
rows = [
    ("COc1cc(N2CCC(N3CCN(C)CC3)CC2)ccc1Nc1nc2c(c(Nc3ccccc3S(=O)(=O)NC(C)C)n1)CCN2", "half-life", 3.28),
]

====

Experimental protocol: clinical
Condition set: human, in vivo, cycle 1 day 28 of dose-escalation phase, 100 mg (n=3), mean; read-out: Cmax
Procedure: For single-dose PK parameters, plasma samples were taken at pre-dose and 0.5 h, 1 h, 2 h, 3 h, 4 h, 6 h, 8 h, 12 h, 24 h, 48 h, 72 h, 96 h, 120 h, 144 h, and 168 h post-dose in PK lead-in phase of dose-escalation phase, and plasma samples were also taken at pre-dose and 0.5 h, 1 h, 2 h, 3 h, 4 h, 6 h, 8 h, 12 h, and 24 h post-dose in cycle 1 day 1 of dose-expansion phase. […]

# Structure, Cmax / ng/mL
measured = [
    ("COc1cc(N2CCC(N3CCN(C)CC3)CC2)ccc1Nc1nc2c(c(Nc3ccccc3S(=O)(=O)NC(C)C)n1)CCN2", 106),
]

====

Experimental protocol: clinical
Condition set: human, in vivo, single dose, PK lead-in phase of dose-escalation phase, 600 mg (n=7), mean

# Structure, MRT last
data = [
    ("COc1cc(N2CCC(N3CCN(C)CC3)CC2)ccc1Nc1nc2c(c(Nc3ccccc3S(=O)(=O)NC(C)C)n1)CCN2", "43.3 h"),
]

====

Experimental protocol: clinical
Condition set: human, in vivo, multiple-dose administration; read-out: mean T1/2 across dose cohorts
Method: For single-dose PK parameters, plasma samples were taken at pre-dose and 0.5 h, 1 h, 2 h, 3 h, 4 h, 6 h, 8 h, 12 h, 24 h, 48 h, 72 h, 96 h, 120 h, 144 h, and 168 h post-dose in PK lead-in phase of dose-escalation phase, and plasma samples were also taken at pre-dose and 0.5 h, 1 h, 2 h, 3 h, 4 h, 6 h, 8 h, 12 h, and 24 h post-dose in cycle 1 day 1 of dose-expansion phase. […]

# Structure, half-life
data = [
    ("COc1cc(N2CCC(N3CCN(C)CC3)CC2)ccc1Nc1nc2c(c(Nc3ccccc3S(=O)(=O)NC(C)C)n1)CCN2", "26.3 to 352 h"),
]

====

Experimental protocol: clinical
Condition set: human, in vivo, cycle 1 day 28 of dose-escalation phase, 800 mg (n=2), mean; read-out: Tmax
Experimental: For single-dose PK parameters, plasma samples were taken at pre-dose and 0.5 h, 1 h, 2 h, 3 h, 4 h, 6 h, 8 h, 12 h, 24 h, 48 h, 72 h, 96 h, 120 h, 144 h, and 168 h post-dose in PK lead-in phase of dose-escalation phase, and plasma samples were also taken at pre-dose and 0.5 h, 1 h, 2 h, 3 h, 4 h, 6 h, 8 h, 12 h, and 24 h post-dose in cycle 1 day 1 of dose-expansion phase. […]
Measurement kind: Tmax (h)

# Structure, Measurement kind, Number
data = [
    ("COc1cc(N2CCC(N3CCN(C)CC3)CC2)ccc1Nc1nc2c(c(Nc3ccccc3S(=O)(=O)NC(C)C)n1)CCN2", "Tmax", 3.5),
]
